Would you kindly list Emax for each of these compounds?
target-of-assay: human mAChR M1 (Homo sapiens)
Construct: host or cells: CHO-K1 cells (ATCC), stably transfected using Lipofectamine2000
Sequence (P11229 1-460): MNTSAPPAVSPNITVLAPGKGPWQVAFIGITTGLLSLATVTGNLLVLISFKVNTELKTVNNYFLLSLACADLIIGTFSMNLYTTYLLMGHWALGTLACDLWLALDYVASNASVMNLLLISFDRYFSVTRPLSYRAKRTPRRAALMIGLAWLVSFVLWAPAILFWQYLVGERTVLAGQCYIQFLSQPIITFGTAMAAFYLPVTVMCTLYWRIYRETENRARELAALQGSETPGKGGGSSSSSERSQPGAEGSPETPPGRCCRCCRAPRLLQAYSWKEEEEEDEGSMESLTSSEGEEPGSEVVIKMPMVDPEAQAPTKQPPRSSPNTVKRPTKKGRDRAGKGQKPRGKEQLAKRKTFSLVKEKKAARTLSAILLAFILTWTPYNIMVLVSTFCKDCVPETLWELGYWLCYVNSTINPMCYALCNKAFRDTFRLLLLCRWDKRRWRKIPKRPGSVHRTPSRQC
experimental-protocol: mAChR M1 cell-based functional assay (calcium mobilization), PAM activity: increase in the EC20 acetylcholine response
experimental-setup: CHO-K1 cells expressing hM1; potentiation of EC20 acetylcholine response
Procedure: Chinese hamster ovary (CHO-K1) cells stably expressing rat (r)M1 were purchased from the American Type Culture Collection and cultured according to their indicated protocol. […] Calcium flux was measured using the Functional Drug Screening System (FDSS) 6000 (Hamamatsu Corporation, Tokyo, Japan) as an increase in the fluorescent static ratio. […] Agonist activity was analyzed as a concentration-dependent increase in calcium mobilization upon compound addition. […]
Give bare numbers, in %.

Some entries whose results are on file:
Cn1ccc(-c2ccc(Cn3cc(C(=O)N[C@H]4CCCCC[C@@H]4O)c4ncn(C)c4c3=O)c(F)c2)n1 : 60
Cn1cc(-c2ccc(Cn3cc(C(=O)NC4CC5(COC5)C4)c4nccn4c3=O)c(F)c2)cn1 : 61
Cc1cccc(-c2ccc(Cn3cc(C(=O)N[C@H]4CCOC[C@@H]4O)c4ncccc4c3=O)c(F)c2)c1 : 61

[in] Please indicate recorded Emax of "Cn1cc(-c2ccc(Cn3cc(C(=O)N[C@H]4CCOC[C@@H]4O)c4nccn4c3=O)cn2)cn1" measured with human mAChR M1 (Homo sapiens).
[out] 60
